System: rat aorta
Test Summary: Inhibitory effects with respect to contractions of the rat aorta induced by 80 mM KCl
Format: cell-based, WISTAR rats
Stated Conditions: isolated rat aorta
pIC50: −log10 of the molar value.
Respond with 1 for pIC50 values of 8 and above, 0 for values below.

Reported pIC50 reaches at least 8 for CCOC(=O)C1=C(C)NC(C)=C(C(=O)OCCN(C)Cc2cccs2)C1c1cccc2c1OCO2 (centres unmarked) ?
1

Check if pIC50 >= 8 (inclusive). Item: CNCCOC(=O)C1=C(C)NC(C)=C(C(=O)OC)C1c1cccc2c1OCO2 (centres unmarked)
0

Determine whether measured pIC50 meets or exceeds 8 for COC(=O)C1=C(C)NC(C)=C(C(=O)OCCN(C)C=O)C1c1cccc2c1OCO2 (centres unmarked)
0

Is reported pIC50 greater than or equal to 8 here: CC1=C(C(=O)OCCN(C)Cc2cccs2)C(c2cccc3c2OCO3)C(C(=O)OC(C)C)=C(C)N1 (centres unmarked)
0

Check if pIC50 >= 8 (inclusive). Item: COC(=O)C1=C(C)NC(C)=C(C(=O)OCCN(C)Cc2ccc(F)cc2)C1c1cccc2c1OCO2 (centres unmarked)
1

Does pIC50 meet or surpass 8 for COC(=O)C1=C(C)NC(C)=C(C(=O)OCCN(C)Cc2ccncc2)C1c1cccc2c1OCO2 (centres unmarked) ?
0
